target system: human S1P3 receptor (Homo sapiens, UniProt Q99500)
Construct: expressed in transfected cells
Sequence (Q99500 whole entry): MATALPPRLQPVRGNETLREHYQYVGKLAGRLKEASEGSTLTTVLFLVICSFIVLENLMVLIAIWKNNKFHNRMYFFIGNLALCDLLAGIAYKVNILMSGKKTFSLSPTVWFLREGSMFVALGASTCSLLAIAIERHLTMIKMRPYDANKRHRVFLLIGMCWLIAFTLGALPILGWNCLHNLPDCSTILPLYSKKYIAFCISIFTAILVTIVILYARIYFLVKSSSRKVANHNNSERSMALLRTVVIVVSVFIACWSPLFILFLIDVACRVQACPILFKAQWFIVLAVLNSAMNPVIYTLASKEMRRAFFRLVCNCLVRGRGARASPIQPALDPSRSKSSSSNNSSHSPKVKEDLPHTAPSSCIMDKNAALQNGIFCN
assay details: FLIPR calcium (Fluo-4) assay for activation or block of activation of human S1P3 receptor in T24 cells
Format: cell-based
experimental context: T24 cells stably expressing the human S1P3 receptor; tested over 0.61 nM to 10,000 nM
parameter: S1P3 % Inhibition (%)
Report as a plain number; the unit % is understood.

For record CCCCCCNC(=S)Nc1cc2c3c(c1)C(c1ccccc1)CCN3CCC2c1ccccc1 (stereo not shown) the listed S1P3 % Inhibition is 100

For record CCCSC(=O)Nc1cc2c3c(c1)C(c1ccccc1)CCN3CCC2c1ccccc1 (stereo not shown) the listed S1P3 % Inhibition is 100

For record CCOC(=O)Nc1cc2c3c(c1)C(c1cccc(F)c1)CCN3CCC2c1cccc(F)c1 (stereo not shown) the listed S1P3 % Inhibition is 102

For record CCCCOC(=O)Nc1cc2c3c(c1)[C@](C)(c1ccccc1)CCN3CC[C@@]2(C)c1ccccc1 the listed S1P3 % Inhibition is 100

For record CCCCOC(=O)Nc1cc2c3c(c1)C(c1cccc(F)c1)CCN3CCC2c1cccc(F)c1 (stereo not shown) the listed S1P3 % Inhibition is 98

For record CCCCOC(=O)Nc1cc2c3c(c1)[C@](C)(c1ccc(F)cc1)CCN3CC[C@@]2(C)c1ccc(F)cc1 the listed S1P3 % Inhibition is 89

For record C[C@@]1(c2ccccc2)CCN2CC[C@@](C)(c3ccccc3)c3cc(NC(=O)OCCCCl)cc1c32 the listed S1P3 % Inhibition is 100

For record CCCSC(=O)Nc1cc2c3c(c1)[C@](C)(c1ccc(F)cc1)CCN3CC[C@@]2(C)c1ccc(F)cc1 the listed S1P3 % Inhibition is 97

For record O=C(Nc1cc2c3c(c1)C(c1ccc(F)cc1)CCN3CCC2c1ccc(F)cc1)OCCF (stereo not shown) the listed S1P3 % Inhibition is 98

For record CCCCCNC(=O)Nc1cc2c3c(c1)C(c1ccccc1)CCN3CCC2c1ccccc1 (stereo not shown) the listed S1P3 % Inhibition is 100

For record CCCNC(=O)c1cc2c3c(c1)C(c1ccccc1)CCN3CCC2c1ccccc1 (stereo not shown) the listed S1P3 % Inhibition is 89

For record CC(C)(C)NC(=O)Nc1cc2c3c(c1)C(c1ccccc1)CCN3CCC2c1ccccc1 (stereo not shown) the listed S1P3 % Inhibition is 101

For record CCCSC(=O)Nc1cc2c3c(c1)[C@@](C)(c1ccccc1)CCN3CC[C@@]2(C)c1ccccc1 the listed S1P3 % Inhibition is 98

For record O=C(Nc1cc2c3c(c1)C(c1ccccc1)CCN3CCC2c1ccccc1)OCCCCl (stereo not shown) the listed S1P3 % Inhibition is 99

For record CCCOC(=O)Nc1cc2c3c(c1)[C@](C)(c1ccccc1)CCN3CC[C@@]2(C)c1ccccc1 the listed S1P3 % Inhibition is 100

For record CCCNC(=O)Nc1cc2c3c(c1)[C@](C)(c1ccccc1)CCN3CC[C@@]2(C)c1ccccc1 the listed S1P3 % Inhibition is 100

---

Provide the reported S1P3 % Inhibition of each item.
target system: human S1P3 receptor (Homo sapiens, UniProt Q99500)
Construct: expressed in transfected cells
assay details: FLIPR calcium (Fluo-4) assay for activation or block of activation of human S1P3 receptor in T24 cells
Type: cell-based
experimental context: T24 cells stably expressing the human S1P3 receptor; tested over 0.61 nM to 10,000 nM
Report as a plain number; the unit % is understood.

For record CCCCCCNC(=O)Nc1cc2c3c(c1)C(c1ccccc1)CCN3CCC2c1ccccc1 (centres unmarked) the listed S1P3 % Inhibition is 100

For record O=C(Nc1cc2c3c(c1)C(c1ccccc1)CCN3CCC2c1ccccc1)OCc1ccccc1 (centres unmarked) the listed S1P3 % Inhibition is 101

For record O=C(Nc1cc2c3c(c1)C(c1ccccc1)CCN3CCC2c1ccccc1)OCCCCCl (centres unmarked) the listed S1P3 % Inhibition is 100

For record CCCNC(=S)Nc1cc2c3c(c1)C(c1ccccc1)CCN3CCC2c1ccccc1 (centres unmarked) the listed S1P3 % Inhibition is 99

For record COC(=O)Nc1cc2c3c(c1)[C@](C)(c1ccccc1)CCN3CC[C@@]2(C)c1ccccc1 the listed S1P3 % Inhibition is 97

For record COC(=O)Nc1cc2c3c(c1)C(c1ccc(F)cc1)CCN3CCC2c1ccc(F)cc1 (centres unmarked) the listed S1P3 % Inhibition is 98

For record O=C(Nc1cc2c3c(c1)C(c1ccccc1)CCN3CCC2c1ccccc1)OCCF (centres unmarked) the listed S1P3 % Inhibition is 102

For record CC(C)(C)NC(=O)Nc1cc2c3c(c1)[C@@](C)(c1ccccc1)CCN3CC[C@@]2(C)c1ccccc1 the listed S1P3 % Inhibition is 99
